binders and their reported Log2 enrichment ratio
Target: T1, Epstein-Barr virus BHRF1 a.a. 1-161 with C-terminal avi-6his tag (Epstein-Barr virus)
T1 construct: also called EBV BHRF1; BHRF1-biotin
T1 chain: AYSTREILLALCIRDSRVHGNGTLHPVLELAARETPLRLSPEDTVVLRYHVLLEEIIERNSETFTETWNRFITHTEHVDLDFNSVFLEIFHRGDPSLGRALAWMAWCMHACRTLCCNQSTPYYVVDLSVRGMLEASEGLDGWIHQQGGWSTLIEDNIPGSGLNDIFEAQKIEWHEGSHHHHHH
Assay: yeast display library, FACS sort at 400 nM BHRF1, deep sequencing
The figure you give is taken to be in log2; do not add the unit.

Worked set:
{"BINDER": "Index 27 (designed binder) GLDGDYLMDEAFKFIERERERAEEEAKKMYELAEKGKYYEERKTKATKFWIALALEMIGDFFNFEMWFRKYAEKNRENNQRREDLLRRWELLLRFQAWDAAERARELGKRLELWFKKG", "REPORTED_RESULT": 0.86}
{"BINDER": "Index 41 (designed binder) GEQEDKVKERAKRGALERAREMFEKMRKAIYLAELYINNDEGKTKLTDRWIAFALMMIGDIFNIALEARLEALKLVLKGLRSQEDAEKVKKLAEEAEREAAKRAAKLGDKMDEKEHEG", "REPORTED_RESULT": -2.39}
{"BINDER": "Index 03 (designed binder) GLDHDKIVDEARKKMEKKIREAKDKAKEFVLKALDNNHDLKQFRELAHKWIALMLMAIGDAFNIMMEAKRKAEWLREQGQQDEDKAEEAKEKLDKAFKEAAERFEEIAKIYGKQAKNG", "REPORTED_RESULT": 3.17}

Next up:
Problem: I have this binder here, Index 49 (designed binder) GWSKDWVLEWLREKLEEIDREALWKFILIWIEKMLGVDDDEQRRKDAAKWIAGSLEAIGDIFNAMMWAKRLLEWLEKANLVRREELEKAKQKAEELAKKAALRAAIYSKIAEEWLWKG , and I need its recorded Log2 enrichment ratio.
Solution: -1.22

meta.source: patent US20160376333A1
